Taken from patent US20260070922A1.

We begin with a simple list: items and their reported inhibition at 1 µM.
Biological target: Orexin type 1 (OX1R) receptor (Homo sapiens)
Construct: expressed in transfected cells; host or cells: CHO cells (G418 selection)
Sequence (O43613 whole entry): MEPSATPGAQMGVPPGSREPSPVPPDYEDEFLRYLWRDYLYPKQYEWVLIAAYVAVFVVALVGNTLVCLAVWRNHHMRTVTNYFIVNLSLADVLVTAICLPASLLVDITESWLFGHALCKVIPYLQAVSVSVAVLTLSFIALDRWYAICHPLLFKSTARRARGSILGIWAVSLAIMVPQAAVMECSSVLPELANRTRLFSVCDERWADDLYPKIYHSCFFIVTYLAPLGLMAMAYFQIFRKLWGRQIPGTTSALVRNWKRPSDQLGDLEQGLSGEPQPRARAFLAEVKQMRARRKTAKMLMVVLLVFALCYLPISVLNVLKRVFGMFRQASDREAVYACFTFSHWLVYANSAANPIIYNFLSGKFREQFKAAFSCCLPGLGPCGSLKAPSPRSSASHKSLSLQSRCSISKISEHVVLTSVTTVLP
Test: In vitro orexin antagonism assay: intracellular calcium measurement (FLIPR), orexin-A 3 nM as agonist
Format: cell-based
Conditions: read-out: OX1R, % Inh. @ 1 uM
Method: In Vitro Orexin Antagonism Measurement Assay: Intracellular Calcium Measurements: […] Within the Fluorescent Imaging Plate Reader (FLIPR Tetra, Molecular Devices), antagonists are added to the plate in a volume of 10 μL/well, incubated for 120 min and finally 10 μL/well of agonist is added. […] The calculated IC50values may fluctuate depending on the daily cellular assay performance. […]
Report the value in % with no unit label.

Example compounds with recorded inhibition at 1 µM:
1) O=C(c1nc2n(c1-c1ccccn1)CCOC2)N1CCC[C@H]1Cn1cc(-c2ccccn2)cn1 76
2) O=C(c1nn2ccccc2c1-c1ccccn1)N1CCC[C@H]1Cn1ccc(-c2ccccn2)n1 100
3) O=C(c1c(-c2ccccn2)nn2ccccc12)N1CCC[C@H]1Cn1ccc(-c2ccccn2)n1 100

Task: Please list inhibition at 1 µM recorded for the compound O=C(c1c(-c2ccccc2)nn2ccccc12)N1CCC[C@H]1Cc1nc(-c2ccc(F)cn2)no1
Result: 80
